# Assay Remarks: Permeability from apical to basolateral side of human Caco2 cells
# Assay type: ADME, cell-based
# Run Parameters: Caco-2, read-out: permeability
Measured Quantity: Papp A→B (×10⁻⁶ cm/s)
Please give a number only; it is taken to be in ×10⁻⁶ cm/s.

So what's the measured Papp A→B for this one? `CC(C)(C)c1cc(NC(=O)[C@@H]2CCCN2c2ccc(Cl)cc2)no1` 24

So what's the measured Papp A→B for this one? `CC(C)(C)c1cc(NC(=O)[C@@H]2CCC(=O)N2c2ccc(Cl)cc2)on1` 11

So what's the measured Papp A→B for this one? `CC(C)(C)c1cc(NC(=O)[C@@H]2CCC(=O)N2c2ccc(C(F)(F)F)cc2)on1` 14
